These measurements were taken from BigSolDB 2.1.

- Measurement Parameters: in ethylene glycol, 298.15 K
Endpoint Name: solubility (mole fraction)

If you can, please state the reported solubility (mole fraction) value of "Nc1cnc(Br)cn1" .
0.00109

---

- Measurement Parameters: in water, 303.15 K
Endpoint Name: solubility (mole fraction)
Keep it simple and answer with nothing but the number.

If you can, please state the reported solubility (mole fraction) value of "Nc1cnc(Br)cn1" .
3.08e-05

---

- Measurement Parameters: in isopropanol, 313.15 K
Endpoint Name: solubility (mole fraction)
Keep it simple and answer with nothing but the number.

If you can, please state the reported solubility (mole fraction) value of "Nc1cnc(Br)cn1" .
0.00594

---

- Measurement Parameters: in propylene glycol, 323.15 K
Endpoint Name: solubility (mole fraction)
Keep it simple and answer with nothing but the number.

If you can, please state the reported solubility (mole fraction) value of "Nc1cnc(Br)cn1" .
0.00294
